- Test system: MS2 coat protein
- protocol details: apparent Kd, MS2 coat protein; higher = weaker binding; RNA-MaP array
- condition: ligand present: flavin mononucleotide; designed as: OFF switch for flavin mononucleotide
Examples of sequences with documented apparent Kd follow.
Could you give me the number in nM? Just the number is fine.

Consider the worked cases shown below.
{"biosequence": "GCUCAGGAAGGAUAUACUGAAGCUAACAUGAGGAUCACCCAUGUCCUAGGUAAGUAUCUGGUAGAAGGUCCGCGUA", "apparent Kd [nM]": 32.5}
{"biosequence": "AUAGAGGAAGGAUAUACAUGAGGAUCACCCAUGUAACGAAGUAGUUGGAUGCCAUGAAGUAGAAGGUCCAGAUG", "apparent Kd [nM]": 13.6}

Data request: Entry "UAUUGGAUGACAGGAUAUCUACGAAGAAGUUGACAUGAGGAUCACCCAUGUAGGGUGUGGAGCAUAGAGAAGGGUCAGAACCUC" has what apparent Kd?
Data returned: 440

Data request: Entry "GAGGCGAAGGAGAAGGCCGCCAGUAAAGGUGACCGUAACAUGAGGAUCACCCAUGUGGAAUAAACGGAGGAUAUCCCUUCUCAG" has what apparent Kd?
Data returned: 21.8

====

- Test system: MS2 coat protein
- protocol details: apparent Kd, MS2 coat protein; higher = weaker binding; RNA-MaP array
- condition: designed as: ON switch for flavin mononucleotide; no ligand
quantity measured: apparent Kd

{"biosequence": "AUAGAUAAGCAGAAGGGCUUGAGAUCCGUAACUAUUGACAUGAGGAUCACCCAUGUUCGUCCCUAGCAGGAUAUGCAAAGAAGC", "apparent Kd": "61.2 nM"}
{"biosequence": "CCAGGACAUGAGGAUCACCCAUGUACGGUCAGCGAAGGAUAUAUUGCGUGGCGAGUGCUGAUAGAAGGUCGUAAAC", "apparent Kd": "15 nM"}
{"biosequence": "AAAAUGGAUUGAACAUGAGGAUCACCCAUGUCCUGCCCGCAUUAGGAUAUCGAUAACUUGAGUACCGAGAAGGAAUGAUGAUCG", "apparent Kd": "12.6 nM"}
{"biosequence": "GGCGUGUACACAGGAUAUGAUACAUGAGGAUCACCCAUGUUCGCGCUGGAUCUACGUGAGAACGAUCAGAAGGGUGCUGCAGGG", "apparent Kd": "398 nM"}
{"biosequence": "CAAAGGAACCAGAAGGCCAUAGGUAAAAUAGUUGGAGGAUAUGGGCACAUGAGGAUCACCCAUGUUCACUGUAAUCAGGAAUAG", "apparent Kd": "102 nM"}
{"biosequence": "AGCGCUUAACCAUAGGAUAUAUUGAUCAUUACAUGAGGAUCACCCAUGUGUCGAAGAAGGCAAUCAUAGAAGGAUGUCAUGUCGCU", "apparent Kd": "26.7 nM"}

Data request: Entry "ACAUGAGGAUCACCCAUGUCUACGAAGGUCGAAAUUAAUACCAGAAGGCGCGUCGACUAAGAGUGCGAGGAUAUGGUGUGUCGA" has what apparent Kd?
Data returned: 52 nM

Data request: Entry "ACGGGAGCAGAAGGAUAUAGGGUAGGUAUUAGACUAGAAGGACUCUUACAUGAGGAUCACCCAUGUAGUUCAGAAUGGGAAAUC" has what apparent Kd?
Data returned: 45.5 nM

Data request: Entry "UAAUUCAGGGAGAAGGUCUGAUCGUAACAUGCAGAAGGAUAUCCCAAUAACAUGAGGAUCACCCAUGUUUUGUUAUGCGUCAAC" has what apparent Kd?
Data returned: 83 nM

Data request: Entry "AUCGAUAAGAAGAAGGCAUUGGCGAUGACGUUAUGAGGAUAUUCAACUACAGCUUGACCACUACAUGAGGAUCACCCAUGUGAA" has what apparent Kd?
Data returned: 19.6 nM

Data request: Entry "AGUUUUAUCGUGUAGGAUAUGGGAUAAUCAACAUGAGGAUCACCCAUGUCAUGAGUGACAAGCGACCAGAAGGACACCAAUACAAC" has what apparent Kd?
Data returned: 400 nM

====

- Test system: MS2 coat protein
- protocol details: apparent Kd, MS2 coat protein; higher = weaker binding; RNA-MaP array; tryptophan 2.4 mM where present
- condition: designed as: ON switch for tryptophan; no ligand
Examples of sequences with documented apparent Kd follow.
Could you give me the number in nM? Just the number is fine.

{"biosequence": "ACAUGAGGAUCACCCAUGUGUGUAAGUCCUCGAGGACCGGUACGGCCGCCACUCGAACGAGUGUAACAUACUUGUUACAAGUAUG", "apparent Kd / nM": 24}
{"biosequence": "GGAUUCAACUCGGCCGCCACUGGUGAUCCUAAUGUACAUGAGGAUCACCCAUGUACAUGAGAAUAUAGGACCGGGAGAUAAGUUA", "apparent Kd / nM": 29}
{"biosequence": "UGUCAUGGAAACAUGACAGGUUCUACCGGUCGAGGACCGGUACGGCCGCCACUCGAUUGGUGGCACAUGAGGAUCACCCAUGUUA", "apparent Kd / nM": 25.2}

Read the next record carefully.
Data request: Form: Entry = "ACAUGAGGAUCACCCAUGUGCAUCACCCGACGAGGACCGGUACGGCCGCCACUCGGGUAUAUAUUUGCAUCGGGUGAUUUUACGU" | System = MS2 coat protein | apparent Kd = ____
Data returned: 19.6

====

- Tested on: MS2 coat protein
- protocol details: apparent Kd, MS2 coat protein; higher = weaker binding; RNA-MaP array
- condition: ligand present: flavin mononucleotide; designed as: ON switch for flavin mononucleotide
Examples of sequences with documented apparent Kd follow.
Number first, unit second.

{"biosequence": "AGCAGCCCUAAAGGAUAUUUGCGCGAGCAAAGCAAAGAAGGUUAAGGGUGGGCUUCAGAGACUACAUGAGGAUCACCCAUGUCC", "apparent Kd": "112 nM"}

Data request: Entry "UGAUCAGAACAGAAGGAGUAGUCUGCCUUGCUACUAGGAUAUGUUACAUGAGGAUCACCCAUGUGUUUAGGAUUGCCAUAAAGG" has what apparent Kd?
Data returned: 9.08 nM

Data request: Entry "UACUUUGUAUGCAAGGAUAUCCAGGAUUCUACAUGAGGAUCACCCAUGUCAAAUACUAUGCAACGGGAGAAGGUGCAUAACAUCAU" has what apparent Kd?
Data returned: 12.2 nM

Data request: Entry "AAAUCAAAGCAGAAGGAACAAUAAGCAUAAAGGUUAGGAUAUGCGUCAACGCAAAGUACAUGAGGAUCACCCAUGUUUAUAAGC" has what apparent Kd?
Data returned: 6.77 nM

====

- System: MS2 coat protein
- protocol details: apparent Kd, MS2 coat protein; higher = weaker binding; RNA-MaP array
- condition: designed as: ON switch for flavin mononucleotide; no ligand
// label = 1 if apparent Kd is not less than 20 nM, otherwise 0

{"biosequence": "UUCACAAGAAUUUACAUGAGGAUCACCCAUGUCCUUGCAAAGGAGGAUAUUGAGUACAAGACCUACAAGAAGGCCAGAGACAAG", "cat": 1}
{"biosequence": "AGGCUUAAAAUGGAGGAUAUCUGUCGCAAAACAUGAGGAUCACCCAUGUACAUAAUGGGCACCACAGAGAAGGCCAUGUACUUUUC", "cat": 1}
{"biosequence": "AGCACAAAGUAGAAGGGUAGCACCGAUUUUCAUACAGGAUAUACGAAGGCAGGGUCAACAUGAGGAUCACCCAUGUUACCGCUU", "cat": 0}
{"biosequence": "UCCAGACAUGAGGAUCACCCAUGUUCAUGCCUCGGAGGAUAUCUAUGGGUGGAGGACUUUAGAGAAGGCCGAUCCG", "cat": 1}

Data request: Does apparent Kd meet or surpass 20 nM for "AUUUAGCAUAUACAUGAGGAUCACCCAUGUCUGAUACAUAGUAGAAGGCCCGUUAAGACAUACAGGGAGGAUAUACGUACAUGU" ?
Data returned: 1

Data request: Does apparent Kd meet or surpass 20 nM for "GGGCCACAUAAGAAGGUGAGCCACAGCGGCGUUCAAGGAUAUUAUAGGUAACCCACCAGACAUGAGGAUCACCCAUGUAGUGUC" ?
Data returned: 1

====

- Tested on: MS2 coat protein
- protocol details: apparent Kd, MS2 coat protein; higher = weaker binding; RNA-MaP array; theophylline 2 mM where present
- condition: ligand present: theophylline; designed as: ON switch for theophylline
// label = 1 (yes) if apparent Kd is not less than 50 nM, otherwise 0 (no)

{"biosequence": "AAAAUAAAUAAAACGGGUAACAUGAAGGAUACCAGCCAGGAAACUGGCCCUUGGCAGCCUCUACAUGAGGAUCACCCAUGUCCCG", "cat": "0 (no)"}
{"biosequence": "AAUCUGUCGGGUGAUACCAGCCUCGGCACAUCUCGUGCCGAACAUGAGGAUCACCCAUGUGGCCCUUGGCAGCACAUGACAAAUC", "cat": "1 (yes)"}
{"biosequence": "UAAAACAUGAGGAUCACCCAUGUAAAUGAUACCAGAGUGAUGAUCCUCCCUUGGCAGCAUAACGCUGAUUGGAAACAAUCAGCGA", "cat": "1 (yes)"}
{"biosequence": "UCACAUGAGGAUCACCCAUGUACAGGCGAUACCAGCCGUACAUUGGGCCCUUGGCAGCGCACCGAGACCUUUAUAAGCACCUCGG", "cat": "1 (yes)"}
{"biosequence": "ACUCGGUGUUUGUUGCUCCGAGUUUAUGAUACCAGUUAGUUUUAUGGCCCUUGGCAGCAUAGGACAUGAGGAUCACCCAUGUGUU", "cat": "1 (yes)"}
{"biosequence": "ACUUUGUCGGGUGAUACCAGCCUCGGCAAAUCUCGUGCCGAACAUGAGGAUCACCCAUGUGGCCCUUGGCAGCACAUGACAACUC", "cat": "1 (yes)"}

Data request: Does apparent Kd meet or surpass 50 nM for "AUCGUACCUGAUGAUACCAGCAAUUGCUCGUGACAUGAGGAUCACCCAUGUGACCAGUGAUGCCCUUGGCAGCAUGGUCGGUGCA" ?
Data returned: 0 (no)

Data request: Does apparent Kd meet or surpass 50 nM for "UUAAGAGGAUAUCAAAUUUGAUUUUGUGAUACCAGAAUAAUUUUAUUCCCUUGGCAGCAUGACAUGAGGAUCACCCAUGUGUCUU" ?
Data returned: 0 (no)

src = the EternaBench riboswitch data
